Values were extracted from paper PMC8617944.

assay: Pharmacokinetic profiles after p.o., i.p. and i.v. administration; type: in vivo, Wistar rats; conditions: Wistar, rat, plasma, ip, 75 mg/kg, plasma, i.p. 75 mg/kg, 300 min, individual rats; read-out: Concentration (µg/mL), Rat 1-6
endpoint: concentration at 300 min (µg/mL)
Output spec: scalar in µg/mL, unitless text.

### Prompt Item `O=C(/C=C(/Br)C(=O)O)Nc1ccc(O)c(C(=O)O)c1` has what recorded concentration at 300 min?
### Response 0

----------
test: Pharmacokinetic profiles after p.o., i.p. and i.v. administration; format: in vivo, Wistar rats; details: Wistar, rat, plasma, iv, 50 mg/kg, i.v. 50 mg/kg, 10 min, n = 6
endpoint: concentration at 10 min (ng/mL)
Output spec: scalar in ng/mL, unitless text.

### Prompt Item `O=C(/C=C(/Br)C(=O)O)Nc1ccc(O)c(C(=O)O)c1` has what recorded concentration at 10 min?
### Response 7800

----------
assay: Distribution of C1 in tissues; type: in vivo, Wistar rats; settings: male, Wistar, rat, spleen, po, 75 mg/kg, Spleen, p.o. 75 mg/kg, individual rats; read-out: Concentration (µg/mL) at 10 minutes, Rat 1-3
endpoint: concentration at 10 min (µg/mL)
Output spec: scalar in µg/mL, unitless text.

### Prompt Item `O=C(/C=C(/Br)C(=O)O)Nc1ccc(O)c(C(=O)O)c1` has what recorded concentration at 10 min?
### Response 30

----------
Assay: Pharmacokinetic profiles after p.o., i.p. and i.v. administration
Type: in vivo, Wistar rats
Details: Wistar, rat, plasma, oral, 50 mg/kg, p.o. 50 mg/kg vs i.v. 50 mg/kg, rats; read-out: absolute oral bioavailability
Description: On the same day as C1 administration, the rats (three groups, n = 6) were previously cannulated for compound administration by the p.o., i.p., and i.v. routes. A 24 G catheter was placed in the right lateral tail vein for blood collection. A first group of rats received a single dose of 50 mg/kg applied p.o. with a 20 G gavage needle. A dose of 75 mg/kg of C1 was injected i.p. into the rats in the second group. […]
endpoint: bioavailability

### Prompt Item O=C(/C=C(/Br)C(=O)O)Nc1ccc(O)c(C(=O)O)c1 [Compound C1] has what recorded bioavailability?
### Response ~77%

----------
experiment: Distribution of C1 in tissues; format: in vivo, Wistar rats; conditions: male, Wistar, rat, spleen, po, 75 mg/kg, Spleen, 6 h, p.o. 75 mg/kg, n = 3; read-out: Average Concentration
endpoint: concentration at 6 h (ng/mL)
Output spec: scalar in ng/mL, unitless text.

### Prompt Item `O=C(/C=C(/Br)C(=O)O)Nc1ccc(O)c(C(=O)O)c1` has what recorded concentration at 6 h?
### Response 7800

----------
assay: Distribution of C1 in tissues; format: in vivo, Wistar rats; conditions: male, Wistar, rat, colon, po, 75 mg/kg, Colon, p.o. 75 mg/kg, individual rats; read-out: Concentration (µg/mL) at 90 minutes, Rat 1-3
endpoint: concentration at 90 min
A bare number is not enough; add the unit after it.

### Prompt Item `O=C(/C=C(/Br)C(=O)O)Nc1ccc(O)c(C(=O)O)c1` has what recorded concentration at 90 min?
### Response 4.2 µg/mL

----------
Assay: Plasma protein binding assay (ultrafiltration, RP-HPLC)
Assay type: in vitro ADME, Wistar rats
Conditions: Wistar; rat plasma, 20 µg/mL; read-out: Percentage of Unbound Fraction ± SD (%)
Experimental: Different quantities of C1 stock solution at 10 mg/mL were spiked into 600 µL of freshly obtained blank rat plasma to give a final concentration of 1, 5, 10, and 20 µg/mL. The resulting samples were incubated at 37 °C for 4 h. […] The free drug concentration of C1 was measured by evaluating 100 µL of ultrafiltrate with RP-HPLC, interpolating the main areas of the samples into a standard curve constructed with known amounts of C1. […]
endpoint: fraction unbound at 4 h, 20 µg/mL
Respond using a number only.

### Prompt Item `O=C(/C=C(/Br)C(=O)O)Nc1ccc(O)c(C(=O)O)c1` has what recorded fraction unbound at 4 h, 20 µg/mL?
### Response 0.948
